# Experimental system: GABA-A receptor; anion channel
# Assay summary: Binding affinity against benzodiazepine site of gamma-aminobutyric-acid A receptor of rat cerebral cortex by using [3H]flunitrazepam in the absence of GABA.
# Format: tissue-based
Assay readout: pIC50
Lab note: report pIC50 as minus log10 of the concentration in molar units, number only.

>>> df
                              line_notation             experimental_system  assay_readout  observed
0        O=C(NC1CC1)C1=C(O)CCn2c1nc1ccccc12  GABA-A receptor; anion channel          pIC50      7.80
1  CN1C2=C(C(=O)Nc3ccccc3F)C(=O)CCN2c2ccccc21  GABA-A receptor; anion channel          pIC50      9.38

Next up:
Lab note: need pIC50 with GABA-A receptor; anion channel for entry `O=C(Nc1ccccc1F)c1c(O)ccn2c1nc1ccccc12` , please look it up.
9.64

----------
Measured pIC50 accompanies every entry in the list below.
# Experimental system: GABA-A receptor; anion channel
# Assay summary: Binding affinity against benzodiazepine site of gamma-aminobutyric-acid A receptor of rat cerebral cortex by using [3H]flunitrazepam in the absence of GABA.
# Format: tissue-based
When answering, recall that pIC50 equals minus log10 of the concentration in mol/L, and write that number alone.

As a guide, the following entries are already answered.
>>> print(df.to_string())
                              line_notation  observed
0  O=C1CCN2C(=C1C(=O)Nc1ccccc1)N(Cc1ccccc1)c1ccccc12      7.92
1    O=C(Nc1ccccc1F)C1=C(O)CCn2c1nc1ccccc12      8.77
2   O=C1CCn2c(nc3ccccc32)/C1=C(\O)Oc1ccccc1      6.70
3  CCN1C2=C(C(=O)Nc3ccccc3)C(=O)CCN2c2ccccc21      8.68

Hello, I am looking for reported pIC50 with GABA-A receptor; anion channel for `OC1=C(/C(S)=N/c2ccccc2)c2nc3ccccc3n2CC1` . Could you help?
6.44

Recall the recorded pIC50 for `O=C1CCn2c(nc3ccccc32)/C1=C(\O)Sc1ccccc1` with GABA-A receptor; anion channel and state it.
7.54

Query the reported pIC50 for GABA-A receptor; anion channel; item: `O=C(Nc1ccc(Cl)cc1)C1=C(O)CCn2c1nc1ccccc12`
6.21

I'm curious: which pIC50 was measured for `CN1C2=C(C(=O)Nc3ccccc3)C(=O)CCN2c2ccccc21` tested on GABA-A receptor; anion channel?
8.24

# value lookup — system GABA-A receptor; anion channel, readout pIC50, item `NC(=O)C1=C(O)CCn2c1nc1ccccc12`
5.62

Requested read-out pIC50, target or system GABA-A receptor; anion channel, entry `O=C(NC1CCC1)C1=C(O)CCn2c1nc1ccccc12`
7.52

# get_value(readout= pIC50, system= GABA-A receptor; anion channel) for `O=C(Nc1ccccc1)c1c(O)ccn2c1nc1ccccc12`
7.62

----------
# Experimental system: GABA-A receptor; anion channel (Rattus norvegicus) (UniProt O09028+P15431+P18506+P18508+P19969+P20236+P23574+P23576+P28471+P28473+P30191+P62813+P63079+P63138+Q91ZM7+Q9ES14)
# Assay summary: GABA shift as the ratio of IC50 (no GABA) to that of IC50 (GABA); GABA shift
# Type: protein-complex assay
# binarize GS: threshold 2 inclusive, high side True, low side False

Solved cases below.
                              line_notation  label_value
0        O=C(NC1CC1)C1=C(O)CCn2c1nc1ccccc12        False
1    O=C(Nc1ccccc1F)C1=C(O)CCn2c1nc1ccccc12        False
2       O=C(NC1CCC1)C1=C(O)CCn2c1nc1ccccc12        False
3  O=C(Nc1cccc(Cl)c1)C1=C(O)CCn2c1nc1ccccc12        False
4   OC1=C(/C(S)=N/c2ccccc2)c2nc3ccccc3n2CC1        False

Answer whether GS of `O=C(Nc1ccc(Cl)cc1)C1=C(O)CCn2c1nc1ccccc12` is greater than or equal to 2.
True

Record `O=C(Nc1ccccc1Cl)C1=C(O)CCn2c1nc1ccccc12` ; criterion: GS no lower than 2. Met?
True

hey, is GS for this one >= 2? `COc1ccccc1NC(=O)C1=C(O)CCn2c1nc1ccccc12`
False

Reported GS reaches at least 2 for `CCO/C(O)=C1\C(=O)CCn2c1nc1ccccc12` ?
False

In plain terms: is recorded GS at least 2 for `COc1cccc(NC(=O)C2=C(O)CCn3c2nc2ccccc23)c1` ?
False
